Recorded values, source patent US9067937B2.

system: A549 cells; test: Cell-based assay, anti-proliferative activity (Cell Counting Kit-8, 72 hours); design: species or system human; conditions: Homo sapiens, A549, 72 h, read-out: IC50 (μM) (A549)
Structures can show the parent of a compound that is named as a salt.
Label Fulfilled when IC50 is strictly below 0.03 µM; at or above that, label Not fulfilled.

>  <MOLECULE>
CC(=O)c1cnc2ccc(-c3cc(F)c(O)c(Cl)c3)nc2c1N[C@H]1CC[C@H](CN2CCN(C)CC2)CC1 [Example 68, trihydrochloride]

>  <CLASS_NAME>
Fulfilled

$$$$
>  <MOLECULE>
CN(C)[C@H]1CC[C@H](Nc2c(C(=O)CO)cnc3ccc(-c4cc(Cl)c(O)c(Cl)c4)nc23)CC1 [Example 203, dihydrochloride]

>  <CLASS_NAME>
Not fulfilled

$$$$
>  <MOLECULE>
CC(=O)c1cnc2ccc(-c3cc(Cl)c(O)c(Cl)c3)nc2c1Nc1ccc(N2CCC(N(C)C)C2)nc1 (stereo not drawn) [Example 51, trihydrochloride]

>  <CLASS_NAME>
Not fulfilled

$$$$
>  <MOLECULE>
CC(=O)c1cnc2ccc(-c3cc(Cl)c(O)c(Cl)c3)nc2c1N[C@H]1CC[C@H](N)CC1 [Example 66, dihydrochloride]

>  <CLASS_NAME>
Fulfilled

$$$$
>  <MOLECULE>
CC(=O)c1cnc2ccc(-c3cc(F)c(O)c(Cl)c3)nc2c1Nc1ccc(N2CCC(N(C)C)C2)nc1 (stereo not drawn) [Example 52, trihydrochloride]

>  <CLASS_NAME>
Not fulfilled

$$$$
>  <MOLECULE>
CN(C)C[C@H]1CC[C@H](Nc2c(C(=O)C3CCC3)cnc3ccc(-c4cc(Cl)c(O)c(Cl)c4)nc23)CC1 [Example 211, dihydrochloride]

>  <CLASS_NAME>
Fulfilled

$$$$
